Just for reference, patent US20140107316A1 is where these values come from.

- System: folate receptor-positive KB cells
- condition: difference in IC50 between competed and non-competed group

compound	target under test	In vitro specificity (fold)
CCCC(=O)OCN(C(=O)[C@@H](NC(=O)[C@H]1CCCCN1C)C(C)CC)[C@H](C[C@@H](OC(C)=O)c1nc(C(=O)N[C@@H](Cc2ccc(O)cc2)C[C@H](C)C(=O)NNC(=O)OCCSSC[C@@H](NC(=O)[C@H](CC(=O)O)NC(=O)[C@H](CC(=O)O)NC(=O)[C@H](CCCNC(=N)N)NC(=O)[C@H](CC(=O)O)NC(=O)CC[C@H](NC(=O)c2ccc(NCc3cnc4nc(N)[nH]c(=O)c4n3)cc2)C(=O)O)C(=O)O)cs1)C(C)C (some centres unmarked)	folate receptor-positive KB cells	78 fold
CCCC(=O)OCN(C(=O)[C@@H](NC(=O)[C@H]1CCCCN1C)C(C)CC)C(C[C@@H](OC(C)=O)c1nc(C(=O)N[C@@H](Cc2ccc(O)cc2)C[C@H](C)C(=O)NNC(=O)OCCSSC[C@@H](NC(=O)[C@@H](CC(=O)O)NC(=O)[C@H](CC(=O)O)NC(=O)[C@H](CCCNC(=N)N)NC(=O)[C@H](CC(=O)O)NC(=O)CC[C@H](NC(=O)c2ccc(NCc3cnc4nc(N)[nH]c(=O)c4n3)cc2)C(=O)O)C(=O)O)cs1)C(C)C (some centres unmarked)	folate receptor-positive KB cells	78 fold
N=c1[nH]c(N)nc2ncc(CNc3ccc(C(=O)N[C@@H](CCC(=O)NNC(=O)OCCSSC[C@H](NC(=O)[C@H](CCC(=O)NC[C@H](O)[C@@H](O)[C@H](O)[C@H](O)CO)NC(=O)[C@H](CCC(=O)O)NC(=O)[C@H](CCC(=O)NC[C@H](O)[C@@H](O)[C@H](O)[C@H](O)CO)NC(=O)[C@H](CCC(=O)O)NC(=O)[C@H](CCC(=O)NC[C@H](O)[C@@H](O)[C@H](O)[C@H](O)CO)NC(=O)CC[C@H](NC(=O)c4ccc(NCc5cnc6nc(N)[nH]c(=O)c6n5)cc4)C(=O)O)C(=O)O)C(=O)O)cc3)nc12 [EC0531, reference compound]	folate receptor-positive KB cells	237 fold
CCCC(=O)OCN(C(=O)[C@@H](NC(=O)[C@H]1CCCCN1C)C(C)CC)[C@H](C[C@@H](OC(C)=O)c1nc(C(=O)N[C@@H](Cc2ccc(O)cc2)C[C@H](C)C(=O)NNC(=O)OCCSSC[C@@H](NC(=O)[C@@H](CC(=O)O)NC(=O)[C@@H](CC(=O)O)NC(=O)[C@@H](CCCNC(=N)N)NC(=O)[C@@H](CC(=O)O)NC(=O)CC[C@@H](NC(=O)c2ccc(NCc3cnc4nc(N)[nH]c(=O)c4n3)cc2)C(=O)O)C(=O)O)cs1)C(C)C (some centres unmarked)	folate receptor-positive KB cells	778 fold
CCCC(=O)OCN(C(=O)[C@@H](NC(=O)[C@H]1CCCCN1C)C(C)CC)[C@H](C[C@@H](OC(C)=O)c1nc(C(=O)N[C@@H](Cc2ccc(O)cc2)C[C@H](C)C(=O)NNC(=O)OCCSSC(C)(C)[C@@H](NC(=O)[C@@H](CC(=O)O)NC(=O)[C@@H](CC(=O)O)NC(=O)[C@@H](CCCNC(=N)N)NC(=O)[C@@H](CC(=O)O)NC(=O)CC[C@@H](NC(=O)c2ccc(NCc3cnc4nc(N)[nH]c(=O)c4n3)cc2)C(=O)O)C(=O)O)cs1)C(C)C (some centres unmarked)	folate receptor-positive KB cells	300 fold
